From: patent US10519446B2

- Tested on: HBV
- assay.text: Efficacy of HBV RNAi agents in HepG2.2.15 cells in vitro (sAg KD)
- Format: cell-based, Hepatitis B Virus
- conditions: Experiment 1; percent knockdown; HepG2.2.15 cells
Would you mind labelling by Max % KD, EXPERIMENT 1? At or over 40% is TRUE, under is FALSE.

Use these answered entries as a reference point.
[
  {
    "substance": "12: \"Twelve of the best HBV RNAi agents identified are listed below, in various formats, in Tables 8A-8E, 9 and 10\" (sense GGACUUCUCUCAAUUUUCU; antisense AGAAAAUUGAGAGAAGUCC; chemistry not given here) [Number 12]",
    "label.value": "FALSE"
  },
  {
    "substance": "11: \"An 18-mer ... with the sequences of Number 11E in Table 10\"; \"an additional HBV RNAi agent, HBV 279\" (sense GGUUCUUCUGGAUUAUCAA; antisense UUGAUAAUCCAGAAGAACC; chemistry not given here)",
    "label.value": "TRUE"
  },
  {
    "substance": "5: \"One sequence used was designated siHBV_1599_18mer_CAM, and corresponds to Number 5 in Table 8E\" (sense CCGUGUGCACUUCGCUUCA; antisense UGAAGCGAAGUGCACACGG; chemistry not given here)",
    "label.value": "TRUE"
  },
  {
    "substance": "4: \"HBV RNAi agents numbered 1 to 10\"; \"The RNAi agents used are listed in Table 8E\" (18-mer format) (sense GAGGCUGUAGGCAUAAAUU; antisense AAUUUAUGCCUACAGCCUC; chemistry not given here) [Number 4]",
    "label.value": "TRUE"
  },
  {
    "substance": "10: \"HBV RNAi agents numbered 1 to 10\"; \"The RNAi agents used are listed in Table 8E\" (18-mer format) (sense GAGAUUAGGUUAAAGGUCU; antisense AGACCUUUAACCUAAUCUC; chemistry not given here) [Number 10]",
    "label.value": "TRUE"
  }
]

[Q] Textbook exercise: given the entry 6: "HBV RNAi agents numbered 1 to 10"; "The RNAi agents used are listed in Table 8E" (18-mer format) (sense GGCUGUAGGCAUAAAUUGG; antisense CCAAUUUAUGCCUACAGCC; chemistry not given here) [Number 6] , state whether its Max % KD, EXPERIMENT 1 is greater than or equal to 40%.
[A] FALSE

[Q] Textbook exercise: given the entry 3: "HBV RNAi agents numbered 1 to 10"; "The RNAi agents used are listed in Table 8E" (18-mer format) (sense CCAUACUGCGGAACUCCUA; antisense UAGGAGUUCCGCAGUAUGG; chemistry not given here) [Number 3] , state whether its Max % KD, EXPERIMENT 1 is greater than or equal to 40%.
[A] TRUE

[Q] Textbook exercise: given the entry 7: "HBV RNAi agents numbered 1 to 10"; "The RNAi agents used are listed in Table 8E" (18-mer format) (sense GCUGUAGGCAUAAAUUGGU; antisense ACCAAUUUAUGCCUACAGC; chemistry not given here) [Number 7] , state whether its Max % KD, EXPERIMENT 1 is greater than or equal to 40%.
[A] TRUE

[Q] Textbook exercise: given the entry 9: "HBV RNAi agents numbered 1 to 10"; "The RNAi agents used are listed in Table 8E" (18-mer format) (sense GGAGGCUGUAGGCAUAAAU; antisense AUUUAUGCCUACAGCCUCC; chemistry not given here) [Number 9] , state whether its Max % KD, EXPERIMENT 1 is greater than or equal to 40%.
[A] TRUE

[Q] Textbook exercise: given the entry 8: "HBV RNAi agents numbered 1 to 10"; "The RNAi agents used are listed in Table 8E" (18-mer format) (sense CAGCAAUGUCAACGACCGA; antisense UCGGUCGUUGACAUUGCUG; chemistry not given here) [Number 8] , state whether its Max % KD, EXPERIMENT 1 is greater than or equal to 40%.
[A] FALSE

---

- Tested on: HBV
- assay.text: Efficacy of HBV RNAi agents in HepG2.2.15 cells in vitro (sAg KD)
- Format: cell-based, Hepatitis B Virus
- conditions: Experiment 2; percent knockdown; HepG2.2.15 cells
Would you mind labelling by Max % KD, EXPERIMENT 2? At or over 50% is rule met, under is rule not met.

Use these answered entries as a reference point.
[
  {
    "substance": "11: \"An 18-mer ... with the sequences of Number 11E in Table 10\"; \"an additional HBV RNAi agent, HBV 279\" (sense GGUUCUUCUGGAUUAUCAA; antisense UUGAUAAUCCAGAAGAACC; chemistry not given here)",
    "label.value": "rule met"
  },
  {
    "substance": "6: \"HBV RNAi agents numbered 1 to 10\"; \"The RNAi agents used are listed in Table 8E\" (18-mer format) (sense GGCUGUAGGCAUAAAUUGG; antisense CCAAUUUAUGCCUACAGCC; chemistry not given here) [Number 6]",
    "label.value": "rule not met"
  }
]

[Q] Textbook exercise: given the entry 3: "HBV RNAi agents numbered 1 to 10"; "The RNAi agents used are listed in Table 8E" (18-mer format) (sense CCAUACUGCGGAACUCCUA; antisense UAGGAGUUCCGCAGUAUGG; chemistry not given here) [Number 3] , state whether its Max % KD, EXPERIMENT 2 is greater than or equal to 50%.
[A] rule not met

---

Parameter Percent sAg remaining at maximum knockdown: see the listing below.
- Test system: HBV
- assay.text: Efficacy of HBV RNAi agents in HepG2.2.15 cells in vitro (sAg KD)
- Type: cell-based, Hepatitis B Virus
- conditions: Experiment 1; percent residual gene activity; HepG2.2.15 cells
- Experimental: Table 9. Efficacy of HBV RNAi agents. The efficacy of various HBV RNAi agents was tested in HepG2.2.15 cells in vitro. 10 μM was used. […] It is noted that, due to the nature of the HepG2.2.15 cell line, it is difficult to achieve greater than 50% knockdown.
Note to self: number, then unit, no commentary.

Please review the following examples before continuing.
[
  {
    "substance": "10: \"HBV RNAi agents numbered 1 to 10\"; \"The RNAi agents used are listed in Table 8E\" (18-mer format) (sense GAGAUUAGGUUAAAGGUCU; antisense AGACCUUUAACCUAAUCUC; chemistry not given here) [Number 10]",
    "result": "42.7%"
  },
  {
    "substance": "8: \"HBV RNAi agents numbered 1 to 10\"; \"The RNAi agents used are listed in Table 8E\" (18-mer format) (sense CAGCAAUGUCAACGACCGA; antisense UCGGUCGUUGACAUUGCUG; chemistry not given here) [Number 8]",
    "result": "62.5%"
  }
]

Lab note: next substance to report on.
[Q] What does the record list as Percent sAg remaining at maximum knockdown for 11: "An 18-mer ... with the sequences of Number 11E in Table 10"; "an additional HBV RNAi agent, HBV 279" (sense GGUUCUUCUGGAUUAUCAA; antisense UUGAUAAUCCAGAAGAACC; chemistry not given here) ?
[A] 34.61%

---

- Tested on: HBV
- assay.text: Efficacy of HBV RNAi agents in HepG2.2.15 cells in vitro (sAg KD)
- Format: cell-based, Hepatitis B Virus
- conditions: Experiment 2; percent knockdown; HepG2.2.15 cells
Parameter Max % KD, EXPERIMENT 2: see the listing below.
Report the value in % with no unit label.

[
  {
    "substance": "5: \"One sequence used was designated siHBV_1599_18mer_CAM, and corresponds to Number 5 in Table 8E\" (sense CCGUGUGCACUUCGCUUCA; antisense UGAAGCGAAGUGCACACGG; chemistry not given here)",
    "unit.annotation": "%",
    "Max % KD, EXPERIMENT 2": 37.8
  }
]

Lab note: next substance to report on.
[Q] // lookup Max % KD, EXPERIMENT 2 | system=HBV | key= 10: "HBV RNAi agents numbered 1 to 10"; "The RNAi agents used are listed in Table 8E" (18-mer format) (sense GAGAUUAGGUUAAAGGUCU; antisense AGACCUUUAACCUAAUCUC; chemistry not given here) [Number 10]
[A] 50.9

---

- System: HBV
- assay.text: Efficacy of HBV RNAi agents in HepG2.2.15 cells in vitro (sAg KD)
- Format: cell-based, Hepatitis B Virus
- conditions: average of Experiments 1 and 2; read-out: EC50 (nM), AVERAGE
Friendly reminder: EC50 below 0.09 nM is true, at or above is false.

[
  {
    "substance": "6: \"HBV RNAi agents numbered 1 to 10\"; \"The RNAi agents used are listed in Table 8E\" (18-mer format) (sense GGCUGUAGGCAUAAAUUGG; antisense CCAAUUUAUGCCUACAGCC; chemistry not given here) [Number 6]",
    "label.value": "true"
  }
]

[Q] Is EC50 strictly under 0.09 nM for the entry 12: "Twelve of the best HBV RNAi agents identified are listed below, in various formats, in Tables 8A-8E, 9 and 10" (sense GGACUUCUCUCAAUUUUCU; antisense AGAAAAUUGAGAGAAGUCC; chemistry not given here) [Number 12] ?
[A] false

[Q] Is EC50 strictly under 0.09 nM for the entry 9: "HBV RNAi agents numbered 1 to 10"; "The RNAi agents used are listed in Table 8E" (18-mer format) (sense GGAGGCUGUAGGCAUAAAU; antisense AUUUAUGCCUACAGCCUCC; chemistry not given here) [Number 9] ?
[A] false

[Q] Is EC50 strictly under 0.09 nM for the entry 4: "HBV RNAi agents numbered 1 to 10"; "The RNAi agents used are listed in Table 8E" (18-mer format) (sense GAGGCUGUAGGCAUAAAUU; antisense AAUUUAUGCCUACAGCCUC; chemistry not given here) [Number 4] ?
[A] true

[Q] Is EC50 strictly under 0.09 nM for the entry 3: "HBV RNAi agents numbered 1 to 10"; "The RNAi agents used are listed in Table 8E" (18-mer format) (sense CCAUACUGCGGAACUCCUA; antisense UAGGAGUUCCGCAGUAUGG; chemistry not given here) [Number 3] ?
[A] true

[Q] Is EC50 strictly under 0.09 nM for the entry 10: "HBV RNAi agents numbered 1 to 10"; "The RNAi agents used are listed in Table 8E" (18-mer format) (sense GAGAUUAGGUUAAAGGUCU; antisense AGACCUUUAACCUAAUCUC; chemistry not given here) [Number 10] ?
[A] false
